- Tested on: P388 leukemia ip, CD2F1 mice, survival T/C
- Procedure summary: NCI In Vivo Anticancer Drug Screen. Data for tumor model P388 Leukemia (intraperitoneal) in CD2F1 (CDF1) mice
- Settings: endpoint: median survival time; dose: 6.25 mg/kg/injection; schedule: Q01DX009 (ip); vehicle: saline with Tween-80; higher = longer survival
Inconclusive results and toxic doses are left out.
Measure: T/C

Solved entries (count: 5):
INSERT INTO assay_data (compound, observed) VALUES
  ('CC(=O)OCC1C(=O)OCC1C(=O)N1Cc2cc3ccccc3nc2C1 (configuration not stated)', '100 % of control'),
  ('CSc1ncnc2c1cnn2C1OC(CO)C(O)C1O (configuration not stated)', '104 % of control'),
  ('Cc1cc(=O)c2c(C)cccc2[nH]1', '100 % of control'),
  ('COc1ccc(N=NS(=O)(=O)O)cn1', '101 % of control'),
  ('O=C(CCCN1CCC(C(=O)c2ccc(F)cc2)CC1)c1ccc(F)cc1', '100 % of control');

Your task in this section: give T/C for each listed record.
1. CCOC(=O)c1ccc(NC(=O)Nc2ncccc2C)cc1
2. CCSc1ncc(Br)c(Sc2nc(N)nc3nc[nH]c23)n1

Given back:
1. 92 % of control
2. 122 % of control

The reported numbers originate from PubChem BioAssay AID330.
